The following sequences are listed with their measured total protein half-life in vivo values.
assay: total protein half-life in vivo (active degradation + dilution); higher = more stable protein; conditions: wild type E. coli NCM3722; growth: N-lim chemostat; doubling time 6 h
Number only, in h; omit the unit.

- entry sequence: "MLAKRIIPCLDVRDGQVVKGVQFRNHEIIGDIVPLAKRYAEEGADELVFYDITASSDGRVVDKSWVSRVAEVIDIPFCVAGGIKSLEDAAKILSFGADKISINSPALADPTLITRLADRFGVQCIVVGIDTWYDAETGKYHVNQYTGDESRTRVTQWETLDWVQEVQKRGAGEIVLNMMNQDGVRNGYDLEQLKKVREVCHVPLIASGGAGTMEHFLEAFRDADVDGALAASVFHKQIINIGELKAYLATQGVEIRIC"
  reported property: "total protein half-life in vivo"
  result number: 4.34
- entry sequence: "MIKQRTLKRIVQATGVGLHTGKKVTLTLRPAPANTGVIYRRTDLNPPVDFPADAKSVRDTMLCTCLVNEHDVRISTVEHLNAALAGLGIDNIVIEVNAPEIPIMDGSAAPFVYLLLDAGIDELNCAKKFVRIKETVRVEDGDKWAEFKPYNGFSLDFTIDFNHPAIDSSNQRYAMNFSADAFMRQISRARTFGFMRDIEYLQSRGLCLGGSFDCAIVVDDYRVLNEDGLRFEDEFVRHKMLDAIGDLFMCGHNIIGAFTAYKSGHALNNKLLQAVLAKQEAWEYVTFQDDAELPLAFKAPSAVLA [P0A725]"
  reported property: "total protein half-life in vivo"
  result number: 0.978
- entry sequence: "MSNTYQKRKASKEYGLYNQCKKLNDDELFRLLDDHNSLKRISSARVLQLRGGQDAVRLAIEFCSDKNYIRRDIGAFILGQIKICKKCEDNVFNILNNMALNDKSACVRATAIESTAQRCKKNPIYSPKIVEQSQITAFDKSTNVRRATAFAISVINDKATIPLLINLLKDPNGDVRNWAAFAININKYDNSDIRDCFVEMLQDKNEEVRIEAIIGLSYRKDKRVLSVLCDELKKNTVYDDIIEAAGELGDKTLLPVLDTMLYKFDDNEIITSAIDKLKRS [P0ADK6]"
  reported property: "total protein half-life in vivo"
  result number: 2.17

Would you kindly share the measured total protein half-life in vivo for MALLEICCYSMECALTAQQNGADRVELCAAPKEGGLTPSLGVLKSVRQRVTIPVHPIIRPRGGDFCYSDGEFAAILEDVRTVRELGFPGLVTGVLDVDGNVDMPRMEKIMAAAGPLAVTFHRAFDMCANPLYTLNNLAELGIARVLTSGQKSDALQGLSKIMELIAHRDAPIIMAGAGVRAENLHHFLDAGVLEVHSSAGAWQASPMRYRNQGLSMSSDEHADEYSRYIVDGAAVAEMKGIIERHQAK ?
4.35
